- study.target: mushroom tyrosinase (Agaricus bisporus)
- Sequence (C7FF04 1-392 limits assumed): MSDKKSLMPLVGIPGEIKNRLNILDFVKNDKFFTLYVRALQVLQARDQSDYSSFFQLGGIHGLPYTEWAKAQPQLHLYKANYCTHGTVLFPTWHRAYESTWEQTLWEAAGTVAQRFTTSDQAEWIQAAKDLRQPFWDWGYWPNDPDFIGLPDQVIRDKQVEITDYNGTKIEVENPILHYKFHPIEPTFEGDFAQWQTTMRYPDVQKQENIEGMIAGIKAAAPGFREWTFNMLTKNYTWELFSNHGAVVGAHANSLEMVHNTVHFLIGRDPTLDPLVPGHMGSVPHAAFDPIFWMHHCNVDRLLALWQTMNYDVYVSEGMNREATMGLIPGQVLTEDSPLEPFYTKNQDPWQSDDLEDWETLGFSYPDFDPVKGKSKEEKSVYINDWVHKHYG
- test.details: Kinetic analysis of the inhibition of tyrosinase (Lineweaver-Burk plots)
- Format: biochemical
- Parameters: purchased Sigma-Aldrich
- particulars: compound at 0.1 mM; L-DOPA substrate
measure.name: Inhibitory Mechanism

>>> value("COc1cccc2cc(/C(C)=N/NC(N)=O)c(=O)oc12")
"Mixed"
>>> value("COc1cccc2cc(C(C)=O)c(=O)oc12")
"Mixed"
>>> value("COc1cccc2cc(/C(C)=N/NC(=O)c3ccncc3)c(=O)oc12")
"Mixed"
>>> value("CC(=O)c1cc2ccc(O)cc2oc1=O [FN-06, 3. -Acetyl-7-hydroxy-2H-chromen-2-one]")
"mixed inhibitors"
>>> value("C/C(=N\\NC(N)=O)c1cc2ccc(O)cc2oc1=O")
"Mixed"
>>> value("COc1cccc2cc(/C(C)=N/NC(N)=S)c(=O)oc12")
"mixed inhibitors"

Exercise: Any idea what Inhibitory Mechanism was measured for `CC(=O)c1cc2ccccc2oc1=O` ?
Solution: Mixed

---

So I've got a bunch of compounds here, and I need their melting point values.

>>> value("CC(=O)c1cc2ccc(C)cc2oc1=O")
"157 to 159 °C"
>>> value("COc1cccc2cc(/C(C)=N/NC(N)=O)c(=O)oc12")
"240 to 242 °C"
>>> value("COc1cccc2cc(/C(C)=N/NC(=O)c3ccncc3)c(=O)oc12")
"202 to 206 °C"
>>> value("CN(C)c1ccc(/C=C/C(=O)c2cc3ccccc3oc2=O)cc1")
"111 to 112 °C"
>>> value("CC(=O)c1cc2cc([N+](=O)[O-])ccc2oc1=O")
"201 to 203 °C"

Note: attention shifts to another entry.
Exercise: Any idea what melting point was measured for `C/C(=N\NC(N)=O)c1cc2ccc(O)cc2oc1=O` ?
Solution: 226 to 229 °C
